Catalogue of hAM1R EC50 (cAMP) readings, one per entry.
# target_or_test_system: hAM1R (human, UniProt Q16602)
# assay_text: cell-based or functional assay
Numbered stars: 1 amine (or outer) side, 2 acyl side, 3 side chain; on linkers, the order of the positions; unused ones are H or OH. Bridge positions count the residues as written; N and C are the ends. Square brackets hold non-standard residues; d marks the D form. Ends that are not written are not given here. * marks the point of attachment. C20 diacid = O=C(O)CCCCCCCCCCCCCCCCCCC(=O)*; γGlu = O=C(O)[C@H](CCC(=O)[*:2])N[*:1]; Hyp = O=C(O)[C@@H]1C[C@@H](O)CN1; Cit = NC(=O)NCCC[C@H](N)C(=O)O

These solved cases illustrate the format of a correct answer.
Looking for the measured hAM1R EC50 (cAMP) of GCRTGTCTVQRLAHQIYQFTDKFKDNVAPRSKISPQTY [SEQ ID NO: 230] , can you help?
> 5 µM

Ok, now KCNTATCTVQWLAHQIYQFTDKDKDAVAPPTNVGSNG[Hyp]-NH2 (disulfide 2-7 (inferred); ends not checked) [SEQ ID NO: 324]
> 5 µM

Ok, now GCRTGTCTVQ[Cit]LAHQIYQFTDKDKDNVAPRSNVGPQG[Hyp]-NH2 (disulfide 2-7 (inferred); ends not checked) [SEQ ID NO: 281]
> 5 µM

Ok, now KCNTATCTVQWLAHQIYQFTDKDKDNVAPATNVGSNG[Hyp]-NH2 (disulfide 2-7 (inferred); ends not checked) [SEQ ID NO: 316]
> 5 µM

Ok, now KCNTATCTVQRLAHQIYQFTDKDKDNVAPPTNVGSNG[Hyp]-NH2 (disulfide 2-7 (inferred); ends not checked) [SEQ ID NO: 75]
> 5 µM

***
Looking for the measured hAM1R EC50 (cAMP) of {C20 diacid-γGlu}-KCNTATCTVERLAHQIYQFTDKDKDNVAPPTNVGSNG[Hyp]-NH2 (disulfide 2-7 (inferred); ends not checked) [SEQ ID NO: 55] , can you help?
0.0638 µM

Ok, now GCRTGTCTVQRLAHQIYQFTDKFKDNVAPRSKISPQW[Hyp]-NH2 (disulfide 2-7 (inferred); ends not checked) [SEQ ID NO: 185]
> 5 µM

Ok, now GCRFGTCTVQRLAHQIYQFTDKDKDNVAPRSKISPQG[Hyp]-NH2 (disulfide 2-7 (inferred); ends not checked) [SEQ ID NO: 169]
2.98 µM

Ok, now {C20 diacid-γGlu}-KCNTATCTVARLAHQIAQFTDKDKDNVAPPTNVGSNG[Hyp]-NH2 (disulfide 2-7 (inferred); ends not checked) [SEQ ID NO: 107]
0.647 µM
